Hey, just so you know, these numbers are from patent EP4273142A1.

- Experiment notes: Ligand protonation equilibria by potentiometric titration
- Format: physicochemical
- Applied conditions: 1.0 m kcl, Table 5, stepwise protonation constant in log units, read-out: H4L + H^+ ⇄H5L
Outcome measure: pKa
Numbers only.

q: Recorded pKa for O=C(O)c1cccc(CN2CCCNCCNCCCNCC2)n1 [TE1PA] , please?
a: 1.69

###

- Experiment notes: Ligand protonation equilibria by potentiometric titration
- Format: physicochemical
- Applied conditions: 1.0 m kcl, Table 5, stepwise protonation constant in log units, read-out: HL + H^+ ⇄H2L
Outcome measure: pKa
One number for each entry.

Solved cases (2 shown):
c1ccc(CN2CCCNCCNCCCNCC2)nc1 [TE1Py]	10.4
c1ccc(CN2CCCNCCNCCCNCC2)cc1 [TE1Bn, reference compound]	9.39

Next up:
q: Looking for the measured pKa of O=C(O)c1cccc(CN2CCCNCCNCCCNCC2)n1 [TE1PA] , can you help?
a: 10.1

###

- Experiment notes: Ligand protonation equilibria by potentiometric titration
- Type: physicochemical
- Applied conditions: 1.0 m kcl, Table 5, stepwise protonation constant in log units, read-out: H2L + H^+ ⇄H3L
For each of the molecules below, state its pKa.

Past entries and their recorded results:
O=C(O)c1cccc(CN2CCCNCCNCCCNCC2)n1	3.05
c1ccc(CN2CCCNCCNCCCNCC2)cc1 [TE1Bn, reference compound]	2.21

q: # pKa lookup, item c1ccc(CN2CCCNCCNCCCNCC2)nc1
a: 2.65

###

- Experiment notes: Ligand protonation equilibria by potentiometric titration
- Assay type: physicochemical
- Applied conditions: 1.0 m kcl, Table 5, stepwise protonation constant in log units, read-out: H3L + H^+ ⇄H4L
Outcome measure: pKa
Give bare numbers.

c1ccc(CN2CCCNCCNCCCNCC2)nc1 [TE1Py]	2.83

// input: 2 compounds below; output: pKa for each
1. O=C(O)c1cccc(CN2CCCNCCNCCCNCC2)n1 [TE1PA]
2. c1ccc(CN2CCCNCCNCCCNCC2)cc1 [TE1Bn, reference compound]

a:
1. 2.28
2. 2.89
